Taken from PubChem BioAssay.

- TEST TARGET: Protein kinase 7 (PK7), Plasmodium falciparum 3D7 (PF3D7_0213400) (UniProt Q7YTF7)
- Sequence (Q7YTF7 1-343): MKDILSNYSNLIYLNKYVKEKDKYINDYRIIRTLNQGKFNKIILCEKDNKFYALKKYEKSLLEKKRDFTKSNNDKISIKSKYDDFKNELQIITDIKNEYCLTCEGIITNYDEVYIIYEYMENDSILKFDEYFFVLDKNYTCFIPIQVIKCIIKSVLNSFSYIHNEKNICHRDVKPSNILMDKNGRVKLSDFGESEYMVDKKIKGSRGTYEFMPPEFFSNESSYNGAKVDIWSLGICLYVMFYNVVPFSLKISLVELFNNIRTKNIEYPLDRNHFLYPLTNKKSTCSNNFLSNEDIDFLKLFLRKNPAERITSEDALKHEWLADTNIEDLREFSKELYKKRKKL
- METHOD NOTES: inhibition of Plasmodium PK7 catalytic activity – biochemical, TCAMS antimalarial set, Kinase-Glo luminescence (AID 1159587)
- CONDITION CONTEXT: recombinant PfPK7, Kinase-Glo ATP depletion luminescence
The source made the active and inactive calls. The rule behind the calls is not given here.
MEASUREMENT TYPE: outcome

INSERT INTO assay_data (chemical_smiles, result) VALUES
  ('CSc1ccc(NC(=O)Nc2cc(C)nc3ccccc23)cc1Br', 'inactive'),
  ('N#Cc1ccc(C(=O)Nc2cc(-c3cccc(O)c3)cc3[nH]ncc23)cc1', 'inactive'),
  ('O=C(/C=C/c1ccc(Cl)c(Cl)c1)NCCCCCN1CCC(C(=O)Nc2ccc(Cl)cc2)CC1', 'inactive'),
  ('Cc1noc(C)c1-c1cccc(CNCc2ccc(-c3ccc(-c4nc5ccccc5[nH]4)s3)cc2)c1', 'inactive'),
  ('Nc1ncc(-c2cn[nH]c2)cc1-c1nc2ccc(F)cc2[nH]1', 'inactive');

Return reported outcome. Input molecule: "c1ccc2c(CNCCCN3CCN(CCCNCc4c5ccccc5cc5ccccc45)CC3)c3ccccc3cc2c1"
inactive

Return reported outcome. Input molecule: "NC(N)=NC(=O)Nc1ccc(Cl)c([N+](=O)[O-])c1"
inactive
